target-desc: human TAS2R1 (Homo sapiens)
Construct: expressed in transfected cells; host or cells: HEK293T-Gα16gust44
Sequence (Q9NYW7 1-299): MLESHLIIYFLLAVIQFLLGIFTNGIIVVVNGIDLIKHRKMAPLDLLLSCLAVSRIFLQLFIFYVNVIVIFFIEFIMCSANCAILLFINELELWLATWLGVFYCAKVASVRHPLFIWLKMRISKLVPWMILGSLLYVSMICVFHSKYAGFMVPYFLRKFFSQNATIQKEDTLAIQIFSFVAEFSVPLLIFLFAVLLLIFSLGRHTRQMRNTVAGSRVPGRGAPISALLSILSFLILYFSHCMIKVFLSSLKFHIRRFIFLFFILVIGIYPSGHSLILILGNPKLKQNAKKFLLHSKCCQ
protocol-details: Calcium imaging assay (FLIPR), HEK293T-Gα16gust44 cells transfected with human TAS2R1
Type: cell-based
reported-conditions: Time 46.796 s
experimental-endpoint: RLU (RLU)
The figure you give is taken to be in RLU; do not add the unit.

[
  {
    "molecule": "C[C@H](CCC(=O)O)[C@H]1CC[C@H]2[C@@H]3[C@H](O)C[C@@H]4C[C@H](O)CC[C@]4(C)[C@H]3C[C@H](O)[C@]12C [Cholic Acid, cholic acid]",
    "measure-unit": "RLU",
    "RLU": 709.989
  },
  {
    "molecule": "C[C@H](CCC(=O)O)[C@H]1CC[C@H]2[C@@H]3[C@@H](O)C[C@@H]4C[C@H](O)CC[C@]4(C)[C@H]3CC[C@]12C [Ursodeoxycholic Acid, ursodeoxycholic acid]",
    "measure-unit": "RLU",
    "RLU": 713.853
  }
]

Query string: State recorded RLU with human TAS2R1 (Homo sapiens), entry C[C@H](CCC(=O)O)[C@H]1CC[C@H]2[C@@H]3[C@H](O)C[C@@H]4C[C@H](O)CC[C@]4(C)[C@H]3CC[C@]12C [Chenodeoxycholic Acid, chenodeoxycholic acid] , no comment.
Result string: 902.191

Query string: State recorded RLU with human TAS2R1 (Homo sapiens), entry C[C@H](CCC(=O)O)[C@H]1CC[C@H]2[C@@H]3CC[C@@H]4C[C@H](O)CC[C@]4(C)[C@H]3CC[C@]12C [Lithocholic Acid, lithocholic acid] , no comment.
Result string: 695.288

* * *

The entries below are paired with their reported RLU.
target-desc: mouse Tas2r108 (Mus musculus, UniProt Q9JKT3)
Construct: expressed in transfected cells; host or cells: HEK293T-Gα16gust44
Sequence (Q9JKT3 whole entry): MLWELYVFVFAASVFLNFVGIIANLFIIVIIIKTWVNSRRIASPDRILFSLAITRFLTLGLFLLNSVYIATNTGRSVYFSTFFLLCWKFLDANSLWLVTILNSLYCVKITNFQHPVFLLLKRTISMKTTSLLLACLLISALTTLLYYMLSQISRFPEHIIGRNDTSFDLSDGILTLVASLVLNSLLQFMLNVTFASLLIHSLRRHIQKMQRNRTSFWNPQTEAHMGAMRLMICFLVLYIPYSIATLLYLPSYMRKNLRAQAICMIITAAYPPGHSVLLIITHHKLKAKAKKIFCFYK
protocol-details: Calcium imaging assay (FLIPR), HEK293T-Gα16gust44 cells transfected with mouse Tas2r108
Format: cell-based
reported-conditions: Time 12 s
Please append the unit to your numeric answer.

Would you please look over these solved cases?
[
  {
    "compound-structure": "C[C@H](CCC(=O)O)[C@H]1CC[C@H]2[C@@H]3[C@H](O)C[C@@H]4C[C@H](O)CC[C@]4(C)[C@H]3C[C@H](O)[C@]12C",
    "RLU": "5.906 RLU"
  },
  {
    "compound-structure": "C[C@H](CCC(=O)NCC(=O)O)[C@H]1CC[C@H]2[C@@H]3[C@H](O)C[C@@H]4C[C@H](O)CC[C@]4(C)[C@H]3C[C@H](O)[C@]12C",
    "RLU": "-20.1582 RLU"
  },
  {
    "compound-structure": "C[C@H](CCC(=O)NCCS(=O)(=O)O)[C@H]1CC[C@H]2[C@@H]3[C@H](O)C[C@@H]4C[C@H](O)CC[C@]4(C)[C@H]3C[C@H](O)[C@]12C",
    "RLU": "-13.3496 RLU"
  },
  {
    "compound-structure": "C[C@H](CCC(=O)NCCS(=O)(=O)O)[C@H]1CC[C@H]2[C@@H]3CC[C@@H]4C[C@H](O)CC[C@]4(C)[C@H]3CC[C@]12C",
    "RLU": "8.803 RLU"
  }
]

Now let's try a different one.
Query string: Retrieve RLU measured for "C[C@H](CCC(=O)O)[C@H]1CC[C@H]2[C@@H]3CC[C@@H]4C[C@H](O)CC[C@]4(C)[C@H]3C[C@H](O)[C@]12C" and print it.
Result string: 15.5762 RLU

* * *

target-desc: human TAS2R1 (Homo sapiens)
Construct: expressed in transfected cells; host or cells: HEK293T-Gα16gust44
protocol-details: Calcium imaging assay (FLIPR), HEK293T-Gα16gust44 cells transfected with human TAS2R1
Format: cell-based
reported-conditions: Time 26.781 s
Method: This set of bile acids was chosen because of their commercial availability in high purities, their diversity within the class of bile acids and their previous detection and quantitation in human blood. Stock solutions were prepared in DMSO. […] Measured data were negative control corrected by subtracting the signal of the mock-transfected cells and exported to Microsoft Excel using the FLIPR software ScreenWorks 4.2. […]
The entries below are paired with their reported RLU.
The figure you give is taken to be in RLU; do not add the unit.

Would you please look over these solved cases?
[
  {
    "compound": "C[C@H](CCC(=O)NCC(=O)O)[C@H]1CC[C@H]2[C@@H]3[C@H](O)C[C@@H]4C[C@H](O)CC[C@]4(C)[C@H]3C[C@H](O)[C@]12C [Glycocholic Acid, glycocholic acid]",
    "reading": 96.1968
  },
  {
    "compound": "C[C@H](CCC(=O)NCCS(=O)(=O)O)[C@H]1CC[C@H]2[C@@H]3CC[C@@H]4C[C@H](O)CC[C@]4(C)[C@H]3CC[C@]12C [Taurolithocholic Acid, taurolithocholic acid]",
    "reading": 33.0454
  },
  {
    "compound": "C[C@H](CCC(=O)O)[C@H]1CC[C@H]2[C@@H]3CC[C@@H]4C[C@H](O)CC[C@]4(C)[C@H]3C[C@H](O)[C@]12C [Deoxycholic Acid, deoxycholic acid]",
    "reading": 25.7142
  }
]

Now let's try a different one.
Query string: State recorded RLU with human TAS2R1 (Homo sapiens), entry C[C@H](CCC(=O)NCCS(=O)(=O)O)[C@H]1CC[C@H]2[C@@H]3[C@H](O)C[C@@H]4C[C@H](O)CC[C@]4(C)[C@H]3C[C@H](O)[C@]12C [Taurocholic Acid, taurocholic acid] , no comment.
Result string: 94.321

* * *

The entries below are paired with their reported RLU.
target-desc: human TAS2R14 (Homo sapiens)
Construct: expressed in transfected cells; host or cells: HEK293T-Gα16gust44
Sequence (Q9NYV8 1-317): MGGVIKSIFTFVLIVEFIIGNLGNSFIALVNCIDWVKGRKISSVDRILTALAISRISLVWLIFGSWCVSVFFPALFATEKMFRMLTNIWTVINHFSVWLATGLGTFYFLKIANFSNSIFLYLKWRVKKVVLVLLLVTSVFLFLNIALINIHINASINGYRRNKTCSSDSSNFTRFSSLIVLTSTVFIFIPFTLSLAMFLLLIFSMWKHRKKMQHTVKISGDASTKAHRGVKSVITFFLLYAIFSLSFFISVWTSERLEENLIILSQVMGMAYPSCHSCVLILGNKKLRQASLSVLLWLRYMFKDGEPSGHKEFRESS
protocol-details: Calcium imaging assay (FLIPR), HEK293T-Gα16gust44 cells transfected with human TAS2R14
Assay type: cell-based
reported-conditions: TAS2R14 trace; Time (s) 22.797 (Chenodeoxycholic Acid 22.781)
Experimental: This set of bile acids was chosen because of their commercial availability in high purities, their diversity within the class of bile acids and their previous detection and quantitation in human blood. Stock solutions were prepared in DMSO. […] Measured data were negative control corrected by subtracting the signal of the mock-transfected cells and exported to Microsoft Excel using the FLIPR software ScreenWorks 4.2. […]

Would you please look over these solved cases?
[
  {
    "compound": "C[C@H](CCC(=O)NCCS(=O)(=O)O)[C@H]1CC[C@H]2[C@@H]3[C@H](O)C[C@@H]4C[C@H](O)CC[C@]4(C)[C@H]3C[C@H](O)[C@]12C [Taurocholic Acid, taurocholic acid]",
    "reading": "-37.2936 RLU"
  },
  {
    "compound": "C[C@H](CCC(=O)NCC(=O)O)[C@H]1CC[C@H]2[C@@H]3[C@H](O)C[C@@H]4C[C@H](O)CC[C@]4(C)[C@H]3C[C@H](O)[C@]12C [Glycocholic Acid, glycocholic acid]",
    "reading": "-58.0996 RLU"
  },
  {
    "compound": "C[C@H](CCC(=O)NCCS(=O)(=O)O)[C@H]1CC[C@H]2[C@@H]3CC[C@@H]4C[C@H](O)CC[C@]4(C)[C@H]3CC[C@]12C [Taurolithocholic Acid, taurolithocholic acid]",
    "reading": "-50.0226 RLU"
  },
  {
    "compound": "C[C@H](CCC(=O)O)[C@H]1CC[C@H]2[C@@H]3[C@H](O)C[C@@H]4C[C@H](O)CC[C@]4(C)[C@H]3CC[C@]12C [Chenodeoxycholic Acid, chenodeoxycholic acid]",
    "reading": "144.429 RLU"
  }
]

Now let's try a different one.
Query string: Retrieve RLU measured for C[C@H](CCC(=O)O)[C@H]1CC[C@H]2[C@@H]3[C@H](O)C[C@@H]4C[C@H](O)CC[C@]4(C)[C@H]3C[C@H](O)[C@]12C [Cholic Acid, cholic acid] and print it.
Result string: 9.863 RLU

FYI, the data here is from paper PMC10247784.
